Data origin: patent US20250082656A1

Assay: Pharmacokinetic study in SAD cohorts
Format: in vivo, human
Settings: following single oral administration of Compound 2 at 250 to 1500 mg
PARAMETER: Urine Elimination

{"columns": ["MOLECULE", "OBSERVED RESULT"],
 "data": [
  ["C[C@@]1(F)[C@H](O)[C@@H](CO)O[C@H]1n1cnc2c(=O)[nH]c(N)nc21", "6.7-8.8%"],
  ["CNc1nc(N)nc2c1ncn2C1OC(COP(=O)(O)NC(C)C(=O)O)C(O)C1(C)F (stereo not shown)", "< 1%"],
  ["CNc1nc(N)nc2c1ncn2[C@@H]1O[C@H](CO)[C@@H](O)[C@@]1(C)F", "10.7-17.9%"]
]}

Let us examine a further case.
GET /value?item= `CNc1nc(N)nc2c1ncn2[C@@H]1O[C@H](CO[P@](=O)(N[C@@H](C)C(=O)OC(C)C)Oc2ccccc2)[C@@H](O)[C@@]1(C)F` &field=Urine Elimination returns < 3%
